# testProtocol: Substrate stability towards detergents and solvents (extinction at 550 nm)
# Assay type: physicochemical
# setupConditions: agent 0.5 %; NAG 0.05 mg/ml; 37° C., 180 min

| compound | unit | Absorption at 550 nm |
| --- | --- | --- |
| CCCCCCCCCCCCOS(=O)(=O)[O-].[Na+] [SDS, Sodium dodecyl sulfate] | arb. units | 2506 |
| CCO | arb. units | 2995 |
| CO | arb. units | 2683 |
| C[S+](C)[O-] [DMSO, Dimethyl sulfoxide] | arb. units | 3055 |
| CN(C)C=O [DMF, N,N-Dimethylformamide] | arb. units | 1234 |

====

# targetEntity: HSL (Rattus norvegicus)
# Construct: The partially purified HSL can be stored at −70° C. for 4 to 6 weeks; from tissue; host or cells: rat epididymal fat cells (male Wistar rats)
# Sequence (P15304 301-1068): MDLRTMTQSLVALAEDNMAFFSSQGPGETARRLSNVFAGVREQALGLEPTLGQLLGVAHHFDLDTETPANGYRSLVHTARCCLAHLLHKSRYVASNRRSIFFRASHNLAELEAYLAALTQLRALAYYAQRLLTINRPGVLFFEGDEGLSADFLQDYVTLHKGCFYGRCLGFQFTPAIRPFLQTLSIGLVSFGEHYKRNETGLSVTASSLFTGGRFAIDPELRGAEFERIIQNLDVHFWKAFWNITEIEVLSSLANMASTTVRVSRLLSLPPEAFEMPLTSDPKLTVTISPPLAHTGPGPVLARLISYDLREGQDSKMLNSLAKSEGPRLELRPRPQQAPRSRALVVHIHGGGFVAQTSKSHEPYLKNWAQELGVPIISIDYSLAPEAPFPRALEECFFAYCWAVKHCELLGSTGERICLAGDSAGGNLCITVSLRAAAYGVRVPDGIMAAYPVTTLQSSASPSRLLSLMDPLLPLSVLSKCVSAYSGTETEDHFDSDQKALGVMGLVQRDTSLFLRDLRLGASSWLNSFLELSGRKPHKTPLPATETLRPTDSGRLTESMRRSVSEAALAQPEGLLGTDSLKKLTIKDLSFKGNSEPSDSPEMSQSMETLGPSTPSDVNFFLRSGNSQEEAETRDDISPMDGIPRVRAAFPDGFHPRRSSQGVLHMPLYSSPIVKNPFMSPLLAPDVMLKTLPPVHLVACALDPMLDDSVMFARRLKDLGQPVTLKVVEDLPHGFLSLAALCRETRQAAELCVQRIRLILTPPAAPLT
# testProtocol: PNPB assay
# Type: biochemical
# setupConditions: Example 6, Table 6; n=5, mean±SD
measurementName: IC50

| molecule | valueMeasured |
| --- | --- |
| O=C(CCCCCCCCCCCNc1ccc([N+](=O)[O-])c2nonc12)OCC(O)CO (racemic) | > 100 µM |

====

# targetEntity: HSL (Rattus norvegicus)
# Construct: The partially purified HSL can be stored at −70° C. for 4 to 6 weeks; from tissue; host or cells: rat epididymal fat cells (male Wistar rats)
# testProtocol: Direct NAG assay (released NBD-FA, TLC/fluorimetry)
# Format: biochemical
measurementName: IC50

| molecule | valueMeasured |
| --- | --- |
| O=C(CCCCCCCCCCCNc1ccc([N+](=O)[O-])c2nonc12)OCC(O)CO (racemic) [Compound 3] | 1.02 µM |

====

# testProtocol: Substrate stability towards detergents and solvents (extinction at 550 nm)
# Format: physicochemical
# setupConditions: agent 2 %; NAG 0.05 mg/ml; 37° C., 180 min

| compound | Absorption at 550 nm |
| --- | --- |
| CN(C)C=O [DMF, N,N-Dimethylformamide] | 251 ± 82 arb. units |
| CCO [Ethanol] | 2510 ± 194 arb. units |
| CO [Methanol] | 1985 ± 165 arb. units |
| CCCCCCCCCCCCOS(=O)(=O)[O-].[Na+] [SDS, Sodium dodecyl sulfate] | 1413 ± 178 arb. units |
| C[S+](C)[O-] [DMSO, Dimethyl sulfoxide] | 2317 ± 266 arb. units |

====

Absorption at 550 nm listing for selected compounds.
# testProtocol: Substrate stability towards detergents and solvents (extinction at 550 nm)
# Assay type: physicochemical
# setupConditions: agent 10 %; NAG 0.05 mg/ml; 37° C., 180 min

| compound | unit | Absorption at 550 nm |
| --- | --- | --- |
| CCO [Ethanol] | arb. units | 873 |
| CCCCCCCCCCCCOS(=O)(=O)[O-].[Na+] [SDS, Sodium dodecyl sulfate] | arb. units | 102 |
| CN(C)C=O [DMF, N,N-Dimethylformamide] | arb. units | 38 |
| CO [Methanol] | arb. units | 475 |
| C[S+](C)[O-] [DMSO, Dimethyl sulfoxide] | arb. units | 372 |

====

# testProtocol: Substrate stability towards detergents and solvents (extinction at 550 nm)
# Assay type: physicochemical
# setupConditions: agent 5 %; NAG 0.05 mg/ml; 37° C., 180 min
Respond with yes for Absorption at 550 nm values of 1000 arb. units and above, no for values below.

| molecule | groupLabel |
| --- | --- |
| CCCCCCCCCCCCOS(=O)(=O)[O-].[Na+] [SDS, Sodium dodecyl sulfate] | no |
| CCO | yes |
| C[S+](C)[O-] [DMSO, Dimethyl sulfoxide] | yes |
| CO | yes |
| CN(C)C=O [DMF, N,N-Dimethylformamide] | no |

====

# testProtocol: Substrate stability towards detergents and solvents (extinction at 550 nm)
# Type: physicochemical
# setupConditions: agent 0.05 %; NAG 0.05 mg/ml; 37° C., 180 min
measurementName: Absorption at 550 nm (arb. units)

| compound | unit | valueMeasured |
| --- | --- | --- |
| CO | arb. units | 3056 |
| CN(C)C=O [DMF, N,N-Dimethylformamide] | arb. units | 3121 |
| C[S+](C)[O-] [DMSO, Dimethyl sulfoxide] | arb. units | 3003 |
| CCCCCCCCCCCCOS(=O)(=O)[O-].[Na+] [SDS, Sodium dodecyl sulfate] | arb. units | 3063 |
| CCO | arb. units | 3147 |

====

# testProtocol: Substrate stability towards detergents and solvents (extinction at 550 nm)
# Assay type: physicochemical
# setupConditions: agent 1 %; NAG 0.05 mg/ml; 37° C., 180 min

| molecule | Absorption at 550 nm (arb. units) |
| --- | --- |
| C[S+](C)[O-] [DMSO, Dimethyl sulfoxide] | 2845 |
| CO | 2534 |
| CN(C)C=O [DMF, N,N-Dimethylformamide] | 654 |
| CCCCCCCCCCCCOS(=O)(=O)[O-].[Na+] [SDS, Sodium dodecyl sulfate] | 2296 |
| CCO | 2834 |

====

# testProtocol: Substrate stability towards detergents and solvents (extinction at 550 nm)
# Type: physicochemical
# setupConditions: agent 0.2 %; NAG 0.05 mg/ml; 37° C., 180 min

| compound | unit | Absorption at 550 nm |
| --- | --- | --- |
| CN(C)C=O [DMF, N,N-Dimethylformamide] | arb. units | 1952 |
| C[S+](C)[O-] [DMSO, Dimethyl sulfoxide] | arb. units | 2984 |
| CCO [Ethanol] | arb. units | 3097 |
| CO [Methanol] | arb. units | 2945 |
| CCCCCCCCCCCCOS(=O)(=O)[O-].[Na+] [SDS, Sodium dodecyl sulfate] | arb. units | 2769 |

====

# reported Absorption at 550 nm; entries follow
# testProtocol: Substrate stability towards detergents and solvents (extinction at 550 nm)
# Type: physicochemical
# setupConditions: agent 0.1 %; NAG 0.05 mg/ml; 37° C., 180 min
measurementName: Absorption at 550 nm

| compound | valueMeasured |
| --- | --- |
| CO | 3102 ± 276 arb. units |
| C[S+](C)[O-] [DMSO, Dimethyl sulfoxide] | 3199 ± 302 arb. units |
| CN(C)C=O [DMF, N,N-Dimethylformamide] | 2655 ± 308 arb. units |
| CCO | 3056 ± 213 arb. units |
| CCCCCCCCCCCCOS(=O)(=O)[O-].[Na+] [SDS, Sodium dodecyl sulfate] | 2935 ± 254 arb. units |
